TEST NAME: NCI Yeast Anticancer Drug Screen. Data for the mlh1 rad18 strain (AID 175)
MEASUREMENT CONTEXT: S. cerevisiae mlh1 rad18 strain growth inhibition; at 50.0 µM; active compounds read high
This is part of a sample that, as a whole, favours compounds with a hit. Of some 79,000 tested, about 15% had one in any assay.
As shown below, each of these molecules has a reported growth inhibition value.
Express the result in % but write the number alone.

# annotated cases, reported growth inhibition shown
>>> data_value("Cc1ccc2c(c1)C(C)CC2(C)C (stereo unspecified)")
2.15
>>> data_value("Cc1ccc(S(=O)(=O)CCOC(=O)Nc2ccccc2)cc1")
11.5
>>> data_value("Nc1c(Cl)ncnc1Nc1ccc(O)cc1")
1.4
>>> data_value("Cn1cc(NC(=O)c2cc(NC(=O)CCCCCC(=O)Nc3cc(C(=O)Nc4cc(C(=O)NCCC(=N)N)n(C)c4)n(C)c3)cn2C)cc1C(=O)NCCC(=N)N")
-3.6
>>> data_value("O=Cc1ccccc1[N+](=O)[O-]")
17.9

Bench note: what growth inhibition did ClC1=C(Cl)C2(Cl)C3C(CC4C3C3(Cl)C(Cl)=C(Cl)C4(Cl)C3(Cl)Cl)C1(Cl)C2(Cl)Cl (stereo unspecified) show? -9.9

Bench note: what growth inhibition did OC1(c2ccccc2)c2ccccc2NC2=NCCN21 (stereo unspecified) show? -16.9

Bench note: what growth inhibition did COC(=O)C(Cc1ccccc1)NP(=O)(O)OCC1OC(n2cc(I)c(=O)[nH]c2=O)CC1O (stereo unspecified) show? 0.85

Bench note: what growth inhibition did O=C(OCC1OC(OC(=O)c2ccccc2)C(O)C1OC(=O)c1ccccc1)c1ccccc1 (stereo unspecified) show? 49.5

Bench note: what growth inhibition did CCCCC(C)NC=O (stereo unspecified) show? 24.6

Bench note: what growth inhibition did `C=C(C)CN(CC(=C)C)c1nc(N)nc(N)n1` show? -13.1

Bench note: what growth inhibition did COc1ccc(CC(=O)OCC2CCCO2)cc1OC (stereo unspecified) show? 4

Bench note: what growth inhibition did CCCCSCC(O)c1ccccc1 (stereo unspecified) show? -2.2

Bench note: what growth inhibition did O=C(O)C1(Br)CC1(c1ccccc1)c1ccccc1 (stereo unspecified) show? 26.1

Bench note: what growth inhibition did `O=S(=O)(Nc1cccc(Cl)c1)c1ccc(Cl)cc1` show? 99.7

Bench note: what growth inhibition did `O=C(O)CCSc1nc2ccccc2s1` show? 19.1

====

As shown below, each of these compounds has a reported growth inhibition value.
TEST NAME: NCI Yeast Anticancer Drug Screen. Data for the mec2-1 strain (AID 157)
MEASUREMENT CONTEXT: S. cerevisiae mec2-1 strain, at 50.0 µM, active compounds read high
Compounds without any hit were thinned out: in the full panel of roughly 79,000, 15% have a hit.
Express the result in % but write the number alone.

>>> data_value("CCCCCCC(O)C/C=C\\CCCCCCCC(=O)O (stereo not given)")
-3.7
>>> data_value("O=C1CN(CCN2CCCCC2)CC(=O)N2Cc3ccccc3CN12")
2.85
>>> data_value("CCCCCCNC(=O)CCC(NC(=O)c1ccc(N(C)Cc2cnc3nc(N)nc(N)c3n2)cc1)C(=O)NCCCCCC (stereo not given)")
17.1
>>> data_value("CCCCOc1ccc(C=Nc2ccc(C)cc2)cc1")
-6.2
>>> data_value("CC(=O)OCC12CCC(C)=CC1O[C@H]1[C@@H](OC(C)=O)[C@H](OC(C)=O)[C@]2(C)[C@@]12CO2 (stereo not given in full)")
-17.4

Bench note: what growth inhibition did Cc1ccc(S(=O)(=O)OCC2C(COS(=O)(=O)c3ccc(C)cc3)C3CCC2C2C3C3C2C2(C)C(=O)C3(C)C(c3ccccc3)=C2c2ccccc2)cc1 (stereo not given) show? -5.2

Bench note: what growth inhibition did `COC(=O)c1ccc(OC(=O)Nc2ccc(SC)cc2)cc1` show? 40.5

Bench note: what growth inhibition did `c1ccc2c(c1)n1nnnc1c1nnnn21` show? -10.4

Bench note: what growth inhibition did O=C(OC(CN1CCCCC1)CN1CCCc2ccccc21)C(O)C(O)C(O)(CO)C(=O)OC(CN1CCCCC1)CN1CCCc2ccccc21 (stereo not given) show? 7.05

Bench note: what growth inhibition did `COc1cc(C(=O)O)c(C(=O)O)cc1OC` show? 21.4

====

TEST NAME: NCI Yeast Anticancer Drug Screen. Data for the mlh1 rad18 strain (AID 175)
MEASUREMENT CONTEXT: S. cerevisiae mlh1 rad18 strain growth inhibition; at 50.0 µM; active compounds read high
The panel holds about 79,000 compounds, 15% with a hit somewhere; the sample as a whole holds those more often.
As shown below, each of these compounds has a reported growth inhibition value.
Express the result in % but write the number alone.

Bench note: what growth inhibition did `COC(=O)c1cc(Cl)c(C(=O)OC)cc1Cl` show? 8.6

====

As shown below, each of these compounds has a reported growth inhibition value.
TEST NAME: NCI Yeast Anticancer Drug Screen. Data for the mec2-1 strain (AID 157)
MEASUREMENT CONTEXT: S. cerevisiae mec2-1 strain, at 50.0 µM, active compounds read high
The panel holds about 79,000 compounds, 15% with a hit somewhere; the sample as a whole holds those more often.
Express the result in % but write the number alone.

>>> data_value("Cc1cc(=O)c2c3c(ccc2[nH]1)Oc1ccccc1O3")
5.95

Bench note: what growth inhibition did Cc1ccc(S(=O)(=O)c2ccc(O)c(C)c2)c(O)c1 (tested in a mixture with another compound) show? 22.9

Bench note: what growth inhibition did CCCCCCCCCCCCCCCCCC(=O)OCC1CO1 (centres undefined) show? 10.3

====

TEST NAME: NCI Yeast Anticancer Drug Screen. Data for the bub3 strain (AID 167)
MEASUREMENT CONTEXT: S. cerevisiae bub3 mutant strain, at 50.0 µM
The panel holds about 79,000 compounds, 15% with a hit somewhere; the sample as a whole holds those more often. The source made the active and inactive calls. No stated cut-off is given here; in the data, active means growth inhibition above about 70%; inactive means the rest.
Select the matching outcome among active, inactive

>>> class_name("O=C(O)C(Br)C(Br)C(=O)Nc1ccc(F)cc1 (stereo unspecified)")
"active"
>>> class_name("CCCNC(C)C(C)O (stereo unspecified)")
"inactive"
>>> class_name("c1ccc(-c2nc3cc4ccccc4cc3nc2-c2ccccc2)cc1")
"inactive"
>>> class_name("CC1=C(C(=O)CC(=O)C(=O)Nc2cccc(C)c2C)Sc2ccccc2N1")
"inactive"
>>> class_name("CCOC(=O)C1=CN(Cc2ccccc2)C2ON=C(c3ccc(Cl)cc3)C2C1 (stereo unspecified)")
"inactive"

Short answer needed: outcome of this test for `CCc1cccc(CC)c1NC(=S)NC(=O)c1ccc(Br)cc1` ? inactive

Short answer needed: outcome of this test for `CCOC(=O)c1nnsc1NC(=O)Nc1ccc(Cc2ccc(NC(=O)Nc3snnc3C(=O)OCC)cc2)cc1` ? inactive

Short answer needed: outcome of this test for `COc1cc(OC)nc(NS(=O)(=O)c2ccc(N)cc2)n1` ? inactive

====

TEST NAME: NCI Yeast Anticancer Drug Screen. Data for the sgs1 mgt1 strain (AID 161);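 further: 0% = growth of cultures given vehicle only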
MEASUREMENT CONTEXT: S. cerevisiae sgs1 mgt1 strain, at 50.0 µM
Compounds without any hit were thinned out: in the full panel of roughly 79,000, 15% have a hit. The source made the active and inactive calls. Cut-off read from the data, not from the text of the source: active = growth inhibition above about 70%; inactive = the rest.
Select the matching outcome among active, inactive

# count of solved cases: 5
>>> class_name("CCCCCCCCCCCCCCCC(=O)N=C(C(N)=O)C(N)=O")
"inactive"
>>> class_name("C[C@@]12CCC3C1C=C1C(=O)c4cc(O)ccc4C(=O)[C@]1(O2)[C@@]3(C)C=O")
"active"
>>> class_name("CSc1nc(Cl)nc2c1nc(SC)n2-c1ccccc1")
"inactive"
>>> class_name("O=C(C1CC=CCC1C(=O)N1CCCCC1)N1CCCCC1 (centres undefined)")
"inactive"
>>> class_name("Cc1[nH]c(=O)[nH]c(=O)c1/C=C/C(=O)NC(CO)CS(=O)CS(C)=O (centres undefined)")
"inactive"

Short answer needed: outcome of this test for `S=C(NCN1CCNCC1)C(=S)NCN1CCNCC1` ? inactive

Short answer needed: outcome of this test for `Nc1ccc(Cl)cc1Cl` ? inactive

Short answer needed: outcome of this test for `O=C(c1ccc(OC(=O)c2ccccc2O)cc1)c1ccc(OC(=O)c2ccccc2O)cc1` ? inactive

Short answer needed: outcome of this test for `OCc1ccc(-c2ccccc2)cc1` ? inactive

Short answer needed: outcome of this test for `CC(=O)OC1(C#N)CCCCC1` ? inactive

Short answer needed: outcome of this test for `[O-]/[N+]1=[N+](\[O-])c2ccccc2CCCc2ccccc21` ? inactive

Short answer needed: outcome of this test for COc1cc(C(O)C(=O)c2cnc3cc([N+](=O)[O-])ccc3n2)ccc1O (centres undefined) ? inactive

Short answer needed: outcome of this test for CC(=O)OCC(C)(C)C(OC(C)=O)C(C)C (centres undefined) ? inactive

Short answer needed: outcome of this test for `CS(=O)(=O)ON1C(=O)c2ccccc2C1=O` ? inactive
